Target Or Test System: CD28 (Homo sapiens, UniProt P10747)
Assay Protocol: Jurkat/IL2 reporter assay: blockade of CD28 costimulation (plate-bound anti-CD3/CD86-Fc)
Format: cell-based
Design: host or cells: Jurkat cells expressing an IL-2-luciferase reporter
Condition Info: Table E5; protein diluted to 40 nM before mixing with cells; 5 hours
Readout Name: Average Relative Luminescence Units

Examples with answers:
Molecule	Result
T57I: variant CD80 IgV-Fc, IgV SEQ ID NO:156 (protein) VIHVTKEVKEVATLSCGHNVSVEELAQTRIYWQKEKKMVLTMMSGDMNIWPEYKNRIIFDITNNLSIVILALRPSDEGTYECVVLKYEKDAFKREHLAEVTLSVKAD	1463 Relative Luminescence Units
A12T/E24D/E35D/D46V/I61V/L72P/E95V: variant CD80 IgV-Fc, IgV SEQ ID NO:217 (protein) VIHVTKEVKEVTTLSCGHNVSVEDLAQTRIYWQKDKKMVLTMMSGVMNIWPEYKNRTIFDVTNNLSIVILAPRPSDEGTYECVVLKYEKDAFKRVHLAEVTLSVKAD	2408 Relative Luminescence Units

Read the next record carefully.
// recorded Average Relative Luminescence Units for V22L/E35G/A71D/L72P: variant CD80 IgV-Fc, IgV SEQ ID NO:193 (protein) VIHVTKEVKEVATLSCGHNVSLEELAQTRIYWQKGKKMVLTMMSGDMNIWPEYKNRTIFDITNNLSIVILDPRPSDEGTYECVVLKYEKDAFKREHLAEVTLSVKAD : 2334 Relative Luminescence Units
